System: Rattus norvegicus
protocolDetails: Anti-inflammatory activity in Rattus norvegicus Fischer-344 (rat) assessed as inhibition of carrageenan-induced paw oedema at 0.30 mmol/kg, ip administered 5 min before […] measured after 3 hr relative to control
Format: functional
assaySetup: Fischer-344, ip
Measured inhibition in vivo at 300 µmol/kg, listed per entry.
// note: answer is a bare numeric in %

>  <molecule>
C[C@H](C(=O)O)c1cccc(C(=O)c2ccccc2)c1 [DEXKETOPROFEN]

>  <inhibition in vivo at 300 µmol/kg (%)>
42

$$$$
>  <molecule>
CCOC(=O)C(CS)NC(=O)C1CCCN1C(=O)C(C)c1cccc(C(=O)c2ccccc2)c1 (stereo not given)

>  <inhibition in vivo at 300 µmol/kg (%)>
52

$$$$
>  <molecule>
COc1ccc2cc(C(C)C(=O)N3CCCC3C(=O)OCCCc3cccnc3)ccc2c1 (stereo not given)

>  <inhibition in vivo at 300 µmol/kg (%)>
24

$$$$
>  <molecule>
COc1ccc2cc(C(C)C(=O)OCCCc3cccnc3)ccc2c1 (stereo not given)

>  <inhibition in vivo at 300 µmol/kg (%)>
27

$$$$
>  <molecule>
COc1ccc2cc([C@H](C)C(=O)O)ccc2c1 [NAPROXEN]

>  <inhibition in vivo at 300 µmol/kg (%)>
51

$$$$

Value of measured inhibition in vivo at 300 µmol/kg for the entry COc1ccc2cc(C(C)C(=O)N3CCCC3C(=O)Oc3ccc(C)cc3OC)ccc2c1 (stereo not given) : 20

Value of measured inhibition in vivo at 300 µmol/kg for the entry COc1cc(C)ccc1OC(=O)C1CCCN1C(=O)C(C)c1cccc(C(=O)c2ccccc2)c1 (stereo not given) : 13

---

Measured inhibition in vivo at 300 µmol/kg, listed per entry.
System: Mus musculus
protocolDetails: Anti-inflammatory activity in Balb-C Mus musculus (mouse) assessed as inhibition of FCA-induced paw oedema at 0.30 mmol/kg, ip administered 5 min before FCA challenge measured after 3 hr relative to control
Format: functional
// note: answer is a bare numeric in %

Known inhibition in vivo at 300 µmol/kg results, listed for orientation:
>  <molecule>
CC(C)Cc1ccc(C(C)C(=O)OCCCc2cccnc2)cc1 (stereo not drawn)

>  <inhibition in vivo at 300 µmol/kg [%]>
59

$$$$
>  <molecule>
CC(C)Cc1ccc([C@H](C)C(=O)O)cc1

>  <inhibition in vivo at 300 µmol/kg [%]>
53

$$$$
>  <molecule>
CCOC(=O)C(CS)NC(=O)C1CCCN1C(=O)Cc1c(C)n(C(=O)c2ccc(Cl)cc2)c2ccc(OC)cc12 (stereo not drawn)

>  <inhibition in vivo at 300 µmol/kg [%]>
44

$$$$
>  <molecule>
COc1ccc2c(c1)c(CC(=O)N1CCCC1C(=O)Oc1ccc(C)cc1OC)c(C)n2C(=O)c1ccc(Cl)cc1 (stereo not drawn)

>  <inhibition in vivo at 300 µmol/kg [%]>
54

$$$$
>  <molecule>
CC(C)Cc1ccc(C(C)C(=O)N2CCCC2C(=O)OCCO[N+](=O)[O-])cc1 (stereo not drawn)

>  <inhibition in vivo at 300 µmol/kg [%]>
62

$$$$
>  <molecule>
CC(C)Cc1ccc(C(C)C(=O)N2CCCC2C(=O)OCCO)cc1 (stereo not drawn)

>  <inhibition in vivo at 300 µmol/kg [%]>
24

$$$$
>  <molecule>
COc1cc(C)ccc1OC(=O)C(C)c1ccc(CC(C)C)cc1 (stereo not drawn)

>  <inhibition in vivo at 300 µmol/kg [%]>
43

$$$$

API: the following record is the query input.
Value of measured inhibition in vivo at 300 µmol/kg for the entry CC(C)Cc1ccc(C(C)C(=O)N2CCCC2C(=O)OCCCc2ccccc2)cc1 (stereo not drawn) : 31

---

Measured mortality at 96 h, listed per entry.
protocolDetails: Toxicity in Rattus norvegicus (rat) assessed as mortality at 200 umol/kg, sc qd for 4 days
Format: organism-based
assaySetup: in vivo
// note: answer is a bare numeric in %

>  <compound>
CC(C(=O)OCCCc1cccnc1)c1cccc(C(=O)c2ccccc2)c1 (configuration not stated)

>  <unitDescriptor>
%

>  <mortality at 96 h>
33

$$$$

API: the following record is the query input.
Value of measured mortality at 96 h for the entry CC(C(=O)O)c1cccc(C(=O)c2ccccc2)c1 (configuration not stated) : 50

---

Measured inhibition, listed per entry.
testedSystem: Prostaglandin G/H synthase 1 (Ovis aries)
protocolDetails: Inhibition of Ovis aries (sheep) COX1 assessed as formation of PGF2a at 200 uM by enzyme immunoassay
// note: answer is a bare numeric in %

Known inhibition results, listed for orientation:
>  <molecule>
COc1ccc2cc(C(C)C(=O)OCCCc3cccnc3)ccc2c1 (stereo unspecified)

>  <testedSystem>
Prostaglandin G/H synthase 1 (Ovis aries)

>  <inhibition [%]>
71

$$$$
>  <molecule>
COc1ccc2cc(C(C)C(=O)N3CCCC3C(=O)Oc3ccc(C)cc3OC)ccc2c1 (stereo unspecified)

>  <testedSystem>
Prostaglandin G/H synthase 1 (Ovis aries)

>  <inhibition [%]>
16

$$$$
>  <molecule>
COc1ccc2c(c1)c(CC(=O)N1CCCC1C(=O)Oc1ccc(C)cc1OC)c(C)n2C(=O)c1ccc(Cl)cc1 (stereo unspecified)

>  <testedSystem>
Prostaglandin G/H synthase 1 (Ovis aries)

>  <inhibition [%]>
16

$$$$
>  <molecule>
COc1ccc2cc([C@H](C)C(=O)O)ccc2c1

>  <testedSystem>
Prostaglandin G/H synthase 1 (Ovis aries)

>  <inhibition [%]>
52

$$$$
>  <molecule>
CC(C(=O)OCCCc1cccnc1)c1cccc(C(=O)c2ccccc2)c1 (stereo unspecified)

>  <testedSystem>
Prostaglandin G/H synthase 1 (Ovis aries)

>  <inhibition [%]>
87

$$$$

API: the following record is the query input.
Value of measured inhibition for the entry CC(C(=O)O)c1cccc(C(=O)c2ccccc2)c1 (stereo unspecified) : 86

---

protocolDetails: Drug uptake in Rattus norvegicus (rat) brain at 0.6 mmol/kg, ip after 30 min by RP-HPLC analysis
Format: ADME, organism-based
assaySetup: read-out: Drug uptake
Measured concentration at 0.5 h, listed per entry.
// note: answer is a bare numeric in ng/g

Known concentration at 0.5 h results, listed for orientation:
>  <molecule>
CC(C)Cc1ccc(C(C)C(=O)N2CCCC2C(=O)NCCS)cc1 (stereo not drawn)

>  <concentration at 0.5 h / ng/g>
9780

$$$$
>  <molecule>
COc1ccc2cc([C@H](C)C(=O)N3CC(O)CC3C(=O)NCCS)ccc2c1 (stereo partly drawn)

>  <concentration at 0.5 h / ng/g>
26600

$$$$

API: the following record is the query input.
Value of measured concentration at 0.5 h for the entry CCOC(=O)C(CS)NC(=O)C1CCCN1C(=O)C(C)c1ccc(CC(C)C)cc1 (stereo not drawn) : 1590

---

protocolDetails: Drug uptake in Rattus norvegicus (rat) brain at 0.6 mmol/kg, ip after 60 min by RP-HPLC analysis
Type: ADME, organism-based
assaySetup: read-out: Drug uptake
attributeMeasured: concentration at 1 h (ng/g)
// note: answer is a bare numeric in ng/g

Known concentration at 1 h results, listed for orientation:
>  <molecule>
CCOC(=O)C(CS)NC(=O)C1CCCN1C(=O)C(C)c1ccc(CC(C)C)cc1 (stereo not drawn)

>  <attributeMeasured>
concentration at 1 h

>  <reportedResult>
40800

$$$$
>  <molecule>
CC(C)Cc1ccc(C(C)C(=O)N2CCCC2C(=O)NCCS)cc1 (stereo not drawn)

>  <attributeMeasured>
concentration at 1 h

>  <reportedResult>
10200

$$$$

API: the following record is the query input.
Value of measured concentration at 1 h for the entry COc1ccc2cc([C@H](C)C(=O)N3CC(O)CC3C(=O)NCCS)ccc2c1 (stereo partly drawn) : 5700

---

Measured concentration at 2 h, listed per entry.
protocolDetails: Drug uptake in Rattus norvegicus (rat) brain at 0.6 mmol/kg, ip after 120 min by RP-HPLC analysis
Assay type: ADME, organism-based
assaySetup: read-out: Drug uptake
// note: answer is a bare numeric in ng/g

>  <molecule>
COc1ccc2cc([C@H](C)C(=O)N3CC(O)CC3C(=O)NCCS)ccc2c1 (stereo partly drawn)

>  <concentration at 2 h / ng/g>
710

$$$$
>  <molecule>
CC(C)Cc1ccc(C(C)C(=O)N2CCCC2C(=O)NCCS)cc1 (stereo not drawn)

>  <concentration at 2 h / ng/g>
35200

$$$$

API: the following record is the query input.
Value of measured concentration at 2 h for the entry CCOC(=O)C(CS)NC(=O)C1CCCN1C(=O)C(C)c1ccc(CC(C)C)cc1 (stereo not drawn) : 27800

---

protocolDetails: Ratio of drug level in brain to blood in Rattus norvegicus (rat) at 0.6 mmol/kg, ip after 2 hr by RP-HPLC analysis
Type: ADME, organism-based
attributeMeasured: Kp at 2 h
Quick one: just the number, no unit, thanks!

Value of measured Kp at 2 h for the entry COc1ccc2cc([C@H](C)C(=O)N3CC(O)CC3C(=O)NCCS)ccc2c1 (stereo partly specified) : 0.04

Sourced from ChEMBL document CHEMBL3046223
